Hi there, I'd appreciate the recorded pKi for every entry that follows.
biological target: UniProt:P50406; assay: Binding affinity to human 5-HT6 receptor expressed in HEK293 cells; format: cell-based
Numbers only, as −log10 of the molar value.

CCCCC(Oc1cc(Cl)ccc1Cl)c1nc(N)nc(N2CCN(C)CC2)n1 (racemic)    7.77

# pKi of CC(Oc1cccc(Cl)c1Cl)c1nc(N)nc(N2CCN(C)CC2)n1 (racemic) = 7.80

---

target: 5-hydroxytryptamine receptor 6 (Homo sapiens, UniProt P50406); details: 1321N1, filed as antagonist, time 30.0 min
Sequence (P50406 whole entry): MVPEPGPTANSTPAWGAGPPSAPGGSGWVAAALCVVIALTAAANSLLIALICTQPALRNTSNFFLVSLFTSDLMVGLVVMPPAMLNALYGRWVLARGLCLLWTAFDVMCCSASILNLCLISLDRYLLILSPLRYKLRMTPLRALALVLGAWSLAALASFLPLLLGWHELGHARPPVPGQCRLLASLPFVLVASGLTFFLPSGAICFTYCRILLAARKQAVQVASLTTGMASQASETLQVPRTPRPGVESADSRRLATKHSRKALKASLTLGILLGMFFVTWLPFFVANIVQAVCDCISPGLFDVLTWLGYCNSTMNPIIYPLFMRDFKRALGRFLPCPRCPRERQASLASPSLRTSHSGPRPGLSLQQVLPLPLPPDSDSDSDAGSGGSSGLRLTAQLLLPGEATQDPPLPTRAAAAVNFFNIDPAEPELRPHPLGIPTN
EXPERIMENTAL READOUT: pKb
One number for each entry.

CCCCC(Oc1cc(Cl)ccc1Cl)c1nc(N)nc(N2CCN(C)CC2)n1 (racemic)    6.36

Below are 3 compounds. Give each one its pKb.
1. CC(Oc1cc(Cl)ccc1Cl)c1nc(N)nc(N2CCN(C)CC2)n1 (racemic)
2. CC(Oc1cccc(Cl)c1Cl)c1nc(N)nc(N2CCN(C)CC2)n1 (racemic)
3. CC(Oc1cc(Cl)cc(Cl)c1)c1nc(N)nc(N2CCN(C)CC2)n1 (racemic)

Response line:
1: 8.44; 2: 8.24; 3: 8.78
